Cited source: patent US4217305A

system: β-Adrenergic; test: β-Adrenergic blocking action: antagonism of isoproterenol induced tachycardia in rats; format: in vivo; conditions: Rattus norvegicus, iv; reserpine pretreated, pentobarbital anesthetized rats; isoproterenol 0.1 μg/Kg iv.
quantity-name: log10 of ED50 (log10 of the value in mg/kg)

compound | log10 of ED50
Cc1ccc(C(O)CNC(C)C2COc3ccccc3O2)cc1S(N)(=O)=O (stereo not drawn) | -0.38
CC(CCc1ccccc1)NCC(O)c1ccc(N)c(S(N)(=O)=O)c1 (stereo not drawn) | -0.92
COc1ccccc1OCC(C)(C)NCC(O)c1ccc(C)c(S(N)(=O)=O)c1 (stereo not drawn) | -0.59
Cc1ccc(C(O)CNCCOc2ccccc2O)cc1S(N)(=O)=O (stereo not drawn) | -1.10
CCOc1ccccc1OCC(C)NCC(O)c1ccc(C)c(S(N)(=O)=O)c1.Cl (stereo not drawn) | -0.57
COc1cc(CO)ccc1OCCNCC(O)c1ccc(C)c(S(N)(=O)=O)c1 (stereo not drawn) | -1.31
CCOc1cc(CO)ccc1OCCNCC(O)c1ccc(C)c(S(N)(=O)=O)c1 (stereo not drawn) | -1.66
COc1cc(O)ccc1OCCNCC(O)c1ccc(C)c(S(N)(=O)=O)c1 (stereo not drawn) | -1.85
Cc1ccc(C(O)CNCCOc2ccccc2CO)cc1S(N)(=O)=O (stereo not drawn) | -0.82

====

tested on: β-Adrenergic; test: β-Adrenergic blocking action: antagonism of isoproterenol induced tachycardia in rats; type: in vivo; conditions: Rattus norvegicus, iv; reserpine pretreated, pentobarbital anesthetized rats; isoproterenol 0.1 μg/Kg iv.
Consider the following compounds and their measured ED50 readings.

compound | ED50 / mg/kg
COc1ccc(C(O)CNC(C)CCc2ccccc2)cc1S(N)(=O)=O.Cl (stereo not shown) | 0.035
Cc1ccc(C(O)CNC(C)COc2ccccc2O)cc1S(N)(=O)=O.Cl (stereo not shown) | 0.044
COc1ccccc1OCC(C)NCC(O)c1ccc(OC)c(S(N)(=O)=O)c1.Cl (stereo not shown) | 0.28
COc1ccccc1OCCNCC(O)c1ccc(C)c(S(N)(=O)=O)c1.Cl (stereo not shown) | 0.16
Cc1ccc(C(O)CNCCOc2ccc(O)cc2)cc1S(N)(=O)=O.Cl (stereo not shown) | 0.013
COc1cc(C(O)CNC(C)CCc2ccccc2)cc(S(N)(=O)=O)c1.Cl (stereo not shown) | 0.052
COc1ccccc1OCC(C)NCC(O)c1ccc(O)c(S(N)(=O)=O)c1.Cl (stereo not shown) | 0.53
